- Test system: SF-268
- Test Protocol: NCI tumour cell line growth inhibition, 48 h
Calls of active or inactive are those of the source. No stated cut-off is given here; in the data, active = GI50 up to about 1.1 µM and inactive = higher.
Outcome codes: 1.0 for active, 0.0 for inactive

{"Compound": "CCC(C)N1CN(c2ccccc2)C2(CCN(CCCSc3ccc(F)cc3)CC2)C1=O (stereo not given)", "Assigned Label": 0.0}
{"Compound": "COc1ccccc1NC(=O)C(=O)C1C(=O)Nc2ccccc2[S+]1[O-] (stereo not given)", "Assigned Label": 0.0}
{"Compound": "C=C(OC1C(C)=C2C(C1OC(=O)CCCCCCC)C(C)(OC(C)=O)CC(OC(=O)CCC)C1(O)C2OC(=O)C1(C)O)/C(C)=C/C (stereo not given)", "Assigned Label": 1.0}
{"Compound": "C[C@]12CC(c3ccccc3O1)C(C#N)C(=O)N2 (stereo not given in full)", "Assigned Label": 0.0}
{"Compound": "COc1ccc(CN2C(=O)CCC/C=C\\[C@H]2CI)cc1", "Assigned Label": 0.0}

###

- Test system: COLO 205
- Test Protocol: NCI tumour cell line growth inhibition, 48 h
Active and inactive are the calls of the source. Cut-off read from the data, not from the text of the source: active = GI50 up to about 1.1 µM and inactive = higher.
Outcome codes: true = active, false = inactive

{"Compound": "CC(=N/NC(=S)N(C)C)/C(=N\\NC(=S)N(C)C)c1ccccc1", "Assigned Label": "false"}
{"Compound": "Cc1ccc(S(=O)(=O)C(C#N)c2nc3ccccc3nc2-n2cccn2)cc1 (configuration not stated)", "Assigned Label": "false"}
{"Compound": "CC(C)(CN)CN", "Assigned Label": "false"}
{"Compound": "O=C1CS/C(=N/N=C/c2cn(Cc3ccc(Cl)cc3Cl)c3ccccc23)N1", "Assigned Label": "false"}
{"Compound": "CCN(CC)CCNc1ccc2ncn3c4c(OC)ccc(OC)c4c(=O)c1c23", "Assigned Label": "true"}
{"Compound": "Cc1c2c(n(Cc3ccccn3)c1C)NN=C(C#N)S2(=O)=O", "Assigned Label": "false"}
{"Compound": "COCN1C(=O)C2CC(/C=C/C(N)=O)=CN2C(=O)c2ccccc21 (configuration not stated)", "Assigned Label": "false"}
{"Compound": "CC1CN=C(N(Cc2ccccc2)C(=O)Nc2ccc(Cl)c(Cl)c2)S1 (configuration not stated)", "Assigned Label": "false"}
{"Compound": "CC(=O)OC1COC(Nn2c(=O)[nH]c3ccccc3c2=O)C(OC(C)=O)C1OC(C)=O (configuration not stated)", "Assigned Label": "false"}
{"Compound": "[N-]=[N+]=NC1C(O)C(CO)OC1n1cnc2c(N)ncnc21 (configuration not stated)", "Assigned Label": "false"}
{"Compound": "Nc1nc(SCCNC(=O)CCc2ccc(O)c(I)c2)nc2c1ncn2C1OC(CO)C(O)C1O (configuration not stated)", "Assigned Label": "false"}
{"Compound": "COc1ccc(-c2cc(C(=O)Nc3ccc(C)c(C)c3)nc(NC#N)n2)cc1", "Assigned Label": "false"}
{"Compound": "NNC(=O)CC(=O)Nc1ccc(Cl)cc1", "Assigned Label": "false"}
{"Compound": "O=C(O)C1C(C(=O)O)C2C(=O)C=CC1N2Cc1ccccc1 (configuration not stated)", "Assigned Label": "false"}
{"Compound": "O=C(/C=C1\\N=C(c2ccccc2)N(c2nc3ccc(Sc4ccccc4)cc3[nH]2)C1=O)/C=C/c1ccccc1", "Assigned Label": "false"}
{"Compound": "C/N=c1/ssc(=S)n1C(C)C", "Assigned Label": "false"}
{"Compound": "Cc1ccc(S(=O)(=O)NC(=O)Nc2nc[nH]n2)cc1", "Assigned Label": "false"}
{"Compound": "COC1OC(C)C2OC(C)(C)OC2C1OC(C)=O (configuration not stated)", "Assigned Label": "false"}
{"Compound": "CNC(=S)N/N=C(\\C(=N/NC(=S)NC)c1ccccn1)c1ccccn1", "Assigned Label": "false"}
{"Compound": "Cc1cc(C)nc(NS(=O)(=O)c2ccc(NC(=O)c3cccc4cc5ccccc5nc34)cc2)n1", "Assigned Label": "false"}
{"Compound": "c1ccc2c3c([nH]c2c1)[C@H]1C2CCCCN2CN1CC3 (some centres not stated)", "Assigned Label": "false"}
{"Compound": "COc1ccc(S(=O)(=O)N/N=C(\\C)CN2C(=O)c3ccccc3C2=O)cc1OC", "Assigned Label": "false"}

###

In this section, each of the molecules is paired with its reported GI50.
- Tested on: SW-620
- Test Protocol: NCI tumour cell line growth inhibition, 48 h
Active and inactive are the calls of the source. No stated cut-off is given here; in the data, active = GI50 up to about 1.1 µM and inactive = higher. Square brackets hold non-standard residues; d marks the D form. Peptide text beside a SMILES is read from it. * marks the point of attachment. X26 = COC1=CC(=O)N(C(=O)[C@@H](O*)C(C)C)[C@H]1Cc1ccccc1; Bn2Val = CC(C)[C@@H](C(=O)*)N(Cc1ccccc1)Cc1ccccc1; NMeV = CN[C@H](C(=O)O)C(C)C; dNMeA = CN[C@H](C)C(=O)O
Measured Quantity: GI50

{"Molecule": "COC1=CC(=O)N(C(=O)[C@@H](OC(=O)[C@@H](C)N(C)C(=O)[C@@H]2CCCN2C(=O)[C@H](C(C)C)N(C)C(=O)[C@@H](NC(=O)[C@H](C(C)C)N(Cc2ccccc2)Cc2ccccc2)C(C)C)C(C)C)[C@H]1Cc1ccccc1 (Bn2Val-V[NMeV]P[dNMeA]-X26)", "Measured Quantity": "GI50", "Result": "> 100 µM (inactive)"}
{"Molecule": "CC(=O)N1CCOC12N=NC(C)(C)O2 (stereo not drawn)", "Measured Quantity": "GI50", "Result": "> 100 µM (inactive)"}
{"Molecule": "N#CC(c1cc(Cl)ncn1)c1nc2ccccc2s1 (stereo not drawn)", "Measured Quantity": "GI50", "Result": "4.62 µM (inactive)"}
{"Molecule": "CCCCCCc1cc2c(C)c(C)c(=O)oc2cc1OCCCOc1cc2oc(=O)c(C)c(C)c2cc1CCCCCC", "Measured Quantity": "GI50", "Result": "> 100 µM (inactive)"}
{"Molecule": "COC(=O)c1c(O)c2c(c3c1OC(C)(C)CC3)OC(C)(C)CC2", "Measured Quantity": "GI50", "Result": "17.5 µM (inactive)"}
{"Molecule": "COc1ccc(Br)c(/C=N\\c2cccc3cc(OC)c(OC)cc23)c1", "Measured Quantity": "GI50", "Result": "7.08 µM (inactive)"}
{"Molecule": "CCOC(=O)C(C(=O)OCC)C(=O)c1ccccc1C(=O)c1ccccc1", "Measured Quantity": "GI50", "Result": "19.5 µM (inactive)"}
{"Molecule": "COc1ccc([C@H]2[C@H]3COC(=O)[C@H]3C(C#N)=C3Sc4ccccc4N32)cc1", "Measured Quantity": "GI50", "Result": "48.6 µM (inactive)"}

###

- Test system: KM12
- Test Protocol: NCI tumour cell line growth inhibition, 48 h
Calls of active or inactive are those of the source. Cut-off read from the data, not from the text of the source: active = GI50 up to about 1.1 µM and inactive = higher. Square brackets hold non-standard residues; d marks the D form. Peptide text beside a SMILES is read from it. * marks the point of attachment. X26 = COC1=CC(=O)N(C(=O)[C@@H](O*)C(C)C)[C@H]1Cc1ccccc1; Bn2Val = CC(C)[C@@H](C(=O)*)N(Cc1ccccc1)Cc1ccccc1; NMeV = CN[C@H](C(=O)O)C(C)C; dNMeA = CN[C@H](C)C(=O)O

{"Compound": "CC(O)c1nc(C#N)c(N)o1 (stereo not drawn)", "Measured Target": "KM12", "GI50": "> 100 µM (inactive)"}
{"Compound": "COC1=CC(=O)N(C(=O)[C@@H](OC(=O)[C@@H](C)N(C)C(=O)[C@@H]2CCCN2C(=O)[C@H](C(C)C)N(C)C(=O)[C@@H](NC(=O)[C@H](C(C)C)N(Cc2ccccc2)Cc2ccccc2)C(C)C)C(C)C)[C@H]1Cc1ccccc1 (Bn2Val-V[NMeV]P[dNMeA]-X26)", "Measured Target": "KM12", "GI50": "> 31.3 µM (inactive)"}
{"Compound": "O=c1/c(=C/c2ccco2)sc2nc3ccccc3n12", "Measured Target": "KM12", "GI50": "> 100 µM (inactive)"}
{"Compound": "COc1ccc(C(c2ccc(C(C)C)cc(OC)c2=O)c2ccc(C(C)C)cc(OC)c2=O)cc1", "Measured Target": "KM12", "GI50": "13.5 µM (inactive)"}
{"Compound": "COc1cc2c(cc1OC)C(C)N(C)c1c-2c(OC(C)=O)cc2cc(OC)c(OC)cc12 (stereo not drawn)", "Measured Target": "KM12", "GI50": "14.2 µM (inactive)"}
{"Compound": "c1ccc([S+](c2ccccc2)c2ccc(Sc3ccc([S+](c4ccccc4)c4ccccc4)cc3)cc2)cc1", "Measured Target": "KM12", "GI50": "21.3 µM (inactive)"}
{"Compound": "O=C1C(Cl)=C(N2CCN(CCOCCO)CC2)C(=O)c2ncccc21", "Measured Target": "KM12", "GI50": "> 10 µM (inactive)"}
{"Compound": "CCN(CC)CC1c2ccccc2C(CNc2ccccc2)N1C (stereo not drawn)", "Measured Target": "KM12", "GI50": "> 100 µM (inactive)"}

Numbers sourced from ChEMBL document CHEMBL1201862.
